system: NCI-H23; assay: relative viability (nuclei count vs DMSO), 5 days (fraction); higher = more cells survive; conditions: first compound 0.6325 µM
Exercise: for every item that follows, state its recorded relative viability.
One number for each entry.

Examples from the recorded data:
[
  {
    "molecule": "COCC1(CO)C(=O)C2CCN1CC2 (configuration not stated) [PRIMA-1MET] + CS(=O)(=O)N1CCN(Cc2cc3nc(-c4cccc5[nH]ncc45)nc(N4CCOCC4)c3s2)CC1 [Pictilisib] (partner 1 µM)",
    "targetSystem": "NCI-H23",
    "relative viability": 0.403
  },
  {
    "molecule": "COCC1(CO)C(=O)C2CCN1CC2 (configuration not stated) [PRIMA-1MET] + CC(=O)Nc1cccc(-n2c(=O)n(C3CC3)c(=O)c3c(Nc4ccc(I)cc4F)n(C)c(=O)c(C)c32)c1 [Trametinib] (partner 0.02 µM)",
    "targetSystem": "NCI-H23",
    "relative viability": 0.37
  },
  {
    "molecule": "COCC1(CO)C(=O)C2CCN1CC2 (configuration not stated) [PRIMA-1MET] + C[C@]1(O)C[C@@H](c2nc(-c3ccc4ccc(-c5ccccc5)nc4c3)c3c(N)nccn32)C1 [Linsitinib] (partner 1 µM)",
    "targetSystem": "NCI-H23",
    "relative viability": 0.443
  },
  {
    "molecule": "COCC1(CO)C(=O)C2CCN1CC2 (configuration not stated) [PRIMA-1MET] + C[C@@H](Oc1cc(-c2cnn(C3CCNCC3)c2)cnc1N)c1c(Cl)ccc(F)c1Cl [Crizotinib] (partner 1 µM)",
    "targetSystem": "NCI-H23",
    "relative viability": 0.471
  },
  {
    "molecule": "COCC1(CO)C(=O)C2CCN1CC2 (configuration not stated) [PRIMA-1MET] + Nc1nc2[nH]cc(CCc3ccc(C(=O)N[C@@H](CCC(=O)O)C(=O)O)cc3)c2c(=O)[nH]1 [Pemetrexed] (partner 0.2 µM)",
    "targetSystem": "NCI-H23",
    "relative viability": 0.595
  },
  {
    "molecule": "COCC1(CO)C(=O)C2CCN1CC2 (configuration not stated) [PRIMA-1MET] + CS(=O)(=O)CCNCc1ccc(-c2ccc3ncnc(Nc4ccc(OCc5cccc(F)c5)c(Cl)c4)c3c2)o1 [Lapatinib] (partner 2 µM)",
    "targetSystem": "NCI-H23",
    "relative viability": 0.951
  }
]

Could you now look at the following molecule, please?
What value of relative viability has been reported for the following molecule? COCC1(CO)C(=O)C2CCN1CC2 (configuration not stated) [PRIMA-1MET] + CCNC(=O)c1noc(-c2cc(C(C)C)c(O)cc2O)c1-c1ccc(CN2CCOCC2)cc1 [Luminespib] (partner 0.01 µM) 0.234
